Please provide measured Disease Control (%) SEPTTR-184 3DC for the entries that follow.
Tested on: Zymoseptoria tritici (SEPTTR-184)
assay-comment: Cyp51 dsRNA tile (fragment) foliar application bioassay (Example 6)
Type: in vivo
assay-context: 3 days curative; rate 3.125 ppm; average of 2 trials
Give bare numbers, in %.

Recorded results for 2 molecules are shown here.
INSERT INTO measurements (molecule, property_measured, value) VALUES
  ('MgCyp51-T6: dsRNA tile of Zymoseptoria tritici Cyp51, 280 bp, location 881-1160 (nucleic acid, listed as Zymoseptoria tritici) ATGCCATTCCCGACAAGGAGATTGCTCATATGATGATTGCGCTGCTCATGGCCGGCCAGCACTCTTCATCTGCGACCGAGTCCTGGATCACTCTCCGCCTCGCATCCCGCCCCGACATCCAAGACGAACTCCTCCAAGAACAAAAGGATATGCTCGGTGTGAACGCCGACGGCAGTATCAAGGAGCTCACATACGCCAACCTCTCGAAACTCACCCTCCTCAATCAAGTCGTCAAAGAAACCCTTCGTATTCACGCTCCAATCCACTCCATTCTGCGCAA', 'Disease Control (%) SEPTTR-184 3DC', 48),
  ('MgCyp51-T5: dsRNA tile of Zymoseptoria tritici Cyp51, 133 bp, location 1316-1448 (nucleic acid, listed as Zymoseptoria tritici) AATACAAGCACCTGTCCCCGACGACTGCCCTAGGAAGCATCGCCGAGGAGAAAGAAGACTATGGCTACGGCCTGGTAAGCAAGGGCGCGGCGTCGCCATACTTACCCTTTGGTGCGGGACGACACAGATGTAT', 'Disease Control (%) SEPTTR-184 3DC', 52);

For each of the items listed, what is its Disease Control (%) SEPTTR-184 3DC?
1. MgCyp51-T9: dsRNA tile of Zymoseptoria tritici Cyp51, 172 bp, location 1-172 (nucleic acid, listed as Zymoseptoria tritici, double-stranded RNA) ATGGGTCTCCTCCAGGAAGTCCTCGCGCAGTTCGACGCGCAATTCGGCCAGACCAGCCTCTGGAAACTTGTCGGACTTGGATTCCTCGCCTTCAGCACGCTCGCCATCCTCCTCAATGTCCTCTCACAACTTCTCTTCCGTGGCAAGTTGTCCGATCCGCCACTCGTATTCC
2. MgCyp51-T8: dsRNA tile of Zymoseptoria tritici Cyp51, 242 bp, location 1151-1392 (nucleic acid, listed as Zymoseptoria tritici) TTCTGCGCAAGGTCAAGTCTCCCATGCCCATCGAAGGTACGGCATACGTCATTCCAACCACCCACACTCTTCTGGCCGCTCCGGGCACAACGAGCCGCATGGACGAGCACTTTCCCGACTGCCTCCATTGGGAGCCGCATCGATGGGACGAGAGCCCGTCCGAGAAATACAAGCACCTGTCCCCGACGACTGCCCTAGGAAGCATCGCCGAGGAGAAAGAAGACTATGGCTACGGCCTGGTA
3. MgCyp51-T12: dsRNA tile of Zymoseptoria tritici Cyp51, 138 bp, location 1377-1514 (nucleic acid, listed as Zymoseptoria tritici) TGGCTACGGCCTGGTAAGCAAGGGCGCGGCGTCGCCATACTTACCCTTTGGTGCGGGACGACACAGATGTATCGGCGAGCAATTCGCGTACGTGCAATTGCAGACCATTACAGCGACGATGGTTCGCGATTTCAAGTT

## Output
1. 52
2. 61
3. 36
